System: L1210 leukemia ip in BDF1 mice, survival T/C
Test: NCI In Vivo Anticancer Drug Screen. Data for tumor model L1210 Leukemia (intraperitoneal) in B6D2F1 (BDF1) mice
Details: endpoint: mean survival time; dose: 12.5 mg/kg/injection; schedule: Q01DX009 (ip); vehicle: Klucel (hydroxypropylcellulose) (HPC); higher = longer survival
Procedure: The antitumor activity of compounds was measured in mice bearing transplantable tumors. Survival or tumor size were measured and the results are expressed as the measurement made in the treated group (T) divided by the measurement made in the vehicle treated control group (C). The tumor model used in this assay is L1210 Leukemia (intraperitoneal) in B6D2F1 (BDF1) mice
Inconclusive results and toxic doses are left out.
Measured quantity: T/C

• C=CC(=O)NCNC(C)C (tested in a mixture with another compound) = 97 % of control
• CC(C)=CCC(C#N)(CCN1CCCC1)c1cccc2ccccc12 (centres undefined) = 100 % of control
• CC1CN1C1=C(Cl)C(=O)C(N2CC2C)=C(Cl)C1=O (centres undefined) = 107 % of control
• COc1ccc(C(=O)CBr)c(OC)c1C = 94 % of control
• C[N+](C)(C)C(=Nc1ccccc1)c1ccccc1 = 100 % of control
• Nc1c(Cl)c(Cl)nc(C(=O)O)c1Cl = 98 % of control
• N=C(N=Nc1c(O)[nH]c2ccccc12)N[N+](=O)[O-] = 101 % of control
• CCCCCCCCCCCC(=O)Nc1ccccc1 = 92 % of control
• Cc1nc(-c2ccc(N=Cc3ccc(N(CCOS(C)(=O)=O)CCOS(C)(=O)=O)cc3Cl)cc2)c(C)s1 = 114 % of control

###

system: L1210 leukemia ip in BDF1 mice, survival T/C; assay: NCI In Vivo Anticancer Drug Screen. Data for tumor model L1210 Leukemia (intraperitoneal) in B6D2F1 (BDF1) mice; conditions: endpoint: mean survival time; dose: 200.0 mg/kg/injection; schedule: Q01DX009 (ip); vehicle: other; higher = longer survival
Toxic doses and inconclusive results are not listed.
Each entry below lists one item and its recorded T/C value.
Measured quantity: T/C

• CSc1ccc(NC(=O)Nc2cccc(F)c2)cc1 = 96 % of control
• CSc1cc(C)c(O)c(C)c1 = 101 % of control
• CN(C)c1ccc(C(=O)O)cc1 = 87 % of control
• CC(C)(C)NC(=O)Oc1ccc2ccccc2c1 = 102 % of control
• COc1c2ccoc2c(OCC=C(C)C)c2oc(=O)ccc12 = 111 % of control
• CCOc1cc(C=Nc2cccc(C(F)(F)F)c2)ccc1O = 99 % of control
• Cc1ccc(CNC(=O)NCCCCCCNC(=O)NCc2ccc(C)cc2)cc1 = 100 % of control
• CCOC(=O)/C(C#N)=C1\CCc2cc(OC)ccc21 = 99 % of control

###

tested on: L1210 leukemia ip in BDF1 mice, survival T/C; assay: NCI In Vivo Anticancer Drug Screen. Data for tumor model L1210 Leukemia (intraperitoneal) in B6D2F1 (BDF1) mice; conditions: endpoint: mean survival time; dose: 400.0 mg/kg/injection; schedule: Q04DX002 (ip); vehicle: Klucel (hydroxypropylcellulose) (HPC); higher = longer survival
Toxic doses and inconclusive results are not listed.
Each entry below lists one item and its recorded T/C value.
Measured quantity: T/C

• O=C(O)CO/N=C/c1ccccc1Cl = 95 % of control
• O=C(Nc1ccccc1-c1ccccc1)c1ccc(Cl)cc1Cl = 101 % of control
• CCS(=O)(=O)CCN1C(=O)C2C3CCC(O3)C2C1=O (stereo not given) = 117 % of control
• COC(=O)C1OCOC2C(COS(=O)(=O)c3ccc(C)cc3)OCOC12 (stereo not given) = 101 % of control
• CC(C)OC(=S)SCC(=O)c1ccc([N+](=O)[O-])cc1 = 105 % of control
• CCCCC(C(C)=O)C(C)=O = 86 % of control
• COC(=O)c1ccc(OC)c(-c2cc(OC)ccc2C(=O)OC)c1 = 104 % of control
• O=C(/C=C/c1cccc([N+](=O)[O-])c1)c1ccccc1[N+](=O)[O-] = 100 % of control
• O=C(O)c1ccccc1Cc1ccccc1 = 100 % of control
• O=C(Nc1ccc(Br)cc1)c1cc(Br)ccc1O = 95 % of control
• CSC(NC(=O)c1ccccc1)C(N)=O (stereo not given) = 97 % of control
• O=C(COc1ccc(F)cc1)N(CCO)CCO = 114 % of control
• C=CCn1c(SCc2ccccc2)nccc1=O = 108 % of control
• CN1NC(=O)CC1c1ccccc1 (stereo not given) = 100 % of control
• Cc1ccc(S(=O)(=O)N(Cc2cccc([N+](=O)[O-])c2)c2ccc(C(=O)O)cc2)cc1 = 102 % of control
• O=C1c2ccccc2C(=O)N1CC#CCN1C(=O)c2ccccc2C1=O = 112 % of control
• Cc1c(C)c(C)c(CCl)c(CCl)c1C = 122 % of control
• CCOC(=O)CSC#N = 107 % of control
• O=C(Oc1c(Cl)cc(S(=O)(=O)F)cc1Cl)c1ccccc1Cl = 89 % of control
• CCCCCOC(=O)C(O)C(C)(Cl)c1ccccc1 (stereo not given) = 100 % of control
